Cited source: the supplement of paper PMC6965134

assay: TIMS collisional cross section (CCS, N2) of the lipid ion; higher = larger ion cross section; conditions: sample type: HeLa; ionization mode: positive; one isomer drawn
EXPERIMENTAL ENDPOINT: TIMS collisional cross section (Å²)

Known TIMS collisional cross section results, listed for orientation:
>>> measured("CCCCCCCC/C=C\\CCCCCCCC(=O)O[C@H](COC(=O)CCCCCCCCCCCCCCC)COC(=O)CCCCCCCCCCCCCCCCCCCCC [TG 16:0_18:1_22:0] (ion (formula + adduct): [C59H112O6+NH4] 1+)")
335.9
>>> measured("CCCCCCCCCCCCCCC(=O)O[C@H](COC(=O)CCCCCCCCCCCCC)COP(=O)([O-])OCC[N+](C)(C)C [PC 14:0_15:0] (ion (formula + adduct): [C37H74NO8P+H] 1+)")
276.3
>>> measured("CCCCCC/C=C\\CCCCCCCC(=O)O[C@@H](COC(=O)CCCCCCC/C=C\\CCCCCCC)COC(=O)CCCCCCCCCCCCC [TG 14:0_16:1_17:1] (ion (formula + adduct): [C50H92O6+NH4] 1+)")
307.1
>>> measured("CC/C=C\\C/C=C\\C/C=C\\C/C=C\\C/C=C\\C/C=C\\CCC(=O)OC[C@@H](COC(=O)CCCCCCCCCCCCCCC)OC(=O)CCCCCCC/C=C\\CCCCCCC [TG 16:0_17:1_22:6] (ion (formula + adduct): [C58H98O6+NH4] 1+)")
324.8
>>> measured("CCCCCC/C=C\\CCCCCCCCCC(=O)O[C@H](COC(=O)CCCCCCCCCCCCCCC)COP(=O)(O)OC[C@H](N)C(=O)O [PS 16:0_18:1@] (ion (formula + adduct): [C40H76NO10P+H] 1+)")
282.1

(a) CC(C)CCC[C@@H](C)[C@H]1CC[C@H]2[C@@H]3CC=C4C[C@@H](O)CC[C@]4(C)[C@H]3CC[C@]12C [Cholesterol] (ion (formula + adduct): [C27H46O+H] 1+)
(b) CCCCC/C=C\C/C=C\C/C=C\C/C=C\CCCC(=O)OC[C@@H](COC(=O)CCCCCCCCCCCCCCC)OC(=O)CCCCCCC/C=C\CCCCCCCC [TG 16:0_18:1_20:4] (ion (formula + adduct): [C57H100O6+NH4] 1+)
Input line: Given a and b , report the one with the higher recorded TIMS collisional cross section. Refer to your chosen item by its label in the answer.
Output line: b
(b: 324.5 Å², a: 207.1 Å²)
